- System: NCI-H226 lung
- assay.details: NCI-60 one-dose screen, 48 h (100 = growth as untreated, 0 = no growth, -100 = all killed)
- experimental.context: 10 µM unless noted
About 83,000 compounds went through this panel and 20% of them were active in at least one assay; those are over-represented in the sample as a whole.
Label key: yes (1) means growth under 90%; no (0) means growth of 90% or more.

O=C1/C(=C/c2ccc(F)cc2)Cc2ccccc21 | no (0)

Does CN(C)c1ccc(-n2nc3ccccc3n2)cc1 have growth strictly under 90%? yes (1)

Does COC(=O)Nc1ccc2ccc3c(NC(=O)OC)ccc4ccc1c2c43 (tested in a mixture with another compound) have growth strictly under 90%? yes (1)

Does CS(=O)(=O)N1CCN(Cc2cc3nc(-c4cccc5[nH]ncc45)nc(N4CCOCC4)c3s2)CC1 (tested in a mixture with another compound) have growth strictly under 90%? yes (1)

Taken from PubChem BioAssay (NCI).
